- system tested: T1, Cyno CD33 full length, expressed on HEK293F cells (cynomolgus monkey)
- T1 construct: HEK293F cells transduced with lentivirus containing full length cyno CD33 (Genbank XP_005590138.1); also called cyCD33
- procedure details: flow cytometry, HEK293F cells expressing cyno CD33
The following binders are shown together with reported MFI at 60 nM mAb values.
Give a bare numeral; the unit MFI is implied.

Below: 5 binders and their reported MFI at 60 nM mAb.
>  <binder>
C33B122 (antibody, IgG1, V domains shown, huIgG1 F405L; also called C33F127; C33H92/C33L30) VH: QLQLQESGPGLVKPSETLSLTCTVSGGSIRSSSYYWGWIRQPPGKGPEWIGSIYSSGNTYYNPSLKSRVTISVDTSKNQFSLKLISMTAADTAVFYCARLAATIVVPAARYFDCWGQGTLVTVSS VL: SYELTQPPSVSVSPGQTVSISCSGDRLGDKYACWYQQKPGQSPVLVIYQDSKRPSGIPERFSGSNSGNTATLTISGTQAMDEADYYCQAWDSSSYVFGTGTKVTVL

>  <MFI at 60 nM mAb, MFI>
19700

$$$$
>  <binder>
C33B80 (antibody, IgG1, V domains shown, huIgG1 F405L; also called C33F85; C33H76/C33L39) VH: EVQLLESGGGLVQPGGSLRLSCAASGFTFNYAMSWVRQAPGKGLEWVSAISGSGGSTYYADSVKGRFTISRDISKNTLYLQMNSLRAEDTAVYYCARTYNSGYYDGDFDYWGQGTLVTVSS VL: QSALTQPASVSGSPGQSIPISSTGTSSDDGKNNIVSWYQQHPGKAPKLMIYKDSKRPSGVSNRFSGSKSGNTASLTISGLQADDEADYHCCSYAGASNHVVFGGGTKLTVL

>  <MFI at 60 nM mAb, MFI>
4610

$$$$
>  <binder>
C33B88 (antibody, IgG1, V domains shown, huIgG1 F405L; also called C33F93; C33H88/C33L61) VH: QVQLVQSGSELKKPGASVKVSCKASGYTLTRSAMNWVRQAPGQGLEWMGWINTNTGNPTYAQGFTGRFVFSLDTSVNTAYLLISSLKTEDTAVYYCASDILPGYHEDYWGQGTLVTVSS VL: QSALTQPASVSGSPGQSITISCTGINSDVGSYDLVSWYQQHPGKAPKLLIYDGSERPSGVFGRFSGSKSDNTTSLTISGLQAEDEAAYYCCSYEVTTTYVVFGGGTKLTVL

>  <MFI at 60 nM mAb, MFI>
50400

$$$$
>  <binder>
C33B46 (antibody, IgG1, V domains shown, huIgG1 F405L; also called C33F51; C33H108/C33L74) VH: QVQLVQSGSELKKPGASVKVSCKASGYTFSTYAMNWVRQAPGQGLEWMGWINTNTGNPTYAQGFTGRFVFSLDTSVSTAYLQISSLKAEDTAVYYCARDRDRGTDYWGQGTLVTVSS VL: QSALTQPASVSGSPGQSITISCTGTSSDVGDDNYVSWYQQHPGKAPKLMIYDVSNRPSGVSNRFSGSKSGNTASLTISGLQSEDEADYYCSSYSSSTTLEVFGGGTKLTVL

>  <MFI at 60 nM mAb, MFI>
49800

$$$$
>  <binder>
C33B48 (antibody, IgG1, V domains shown, huIgG1 F405L; also called C33F53; C33H80/C33L73) VH: QVQLVQSGSELRKPGASVKVSCKASGYTFTNYAMNWVRQAPGQGLEWMGWINTNTGNPTYAQGFTGRFVFSLDTSVSSAYLQISSLKAEDTAMYYCATDRDRGTDYWGQGTLVTVSS VL: QSALTQPASVSGSPGQSITISCTGTSSDVGDYNYVSWYQQHPGKVPKLMIYDVSNRPSGVSNRFSGSMSGNTASLTISGLQAEDEADYYCSSYSSSSALEVFGGGTKLTVL

>  <MFI at 60 nM mAb, MFI>
56500

$$$$

Kindly review the next binder as well.
Kindly note the recorded MFI at 60 nM mAb for C33B72 (antibody, IgG1, V domains shown, huIgG1 F405L; also called C33F77; C33H65/C33L47) VH: QVQLVESGGGVVQPGRSLRLSCAASGFTFSSYGMHWVRQAPGKGLEWVVVISYDGSNKYYADSVKGRFTISRDNSKNTLYLQMNSLRAEDTAVYYCAKDFRDFDWLPPDSTSYHGMDVWGQGTTVTVSS VL: SYELTQPPSVSVSPGQTASITCSGDKLGDKYACWYQQKPGQSPVVVIYQDRKRPSGIPERFSGSNFGNTATLTISGTQAMDEADYYCQAWDSSTVVFGGGTKLTVL , which is 19400

Ref: patent US20230322924A1
